- System: SN12C
- methodNotes: NCI tumour cell line growth inhibition, 48 h
Activity calls are given as the source filed them. No stated cut-off is given here; in the data, active = GI50 up to about 1.1 µM and inactive = higher.
reportedMetric: GI50

Example results:
# compound, GI50
data = [
    ("O=C(OCC12CC3CC(CC(C3)C1)C2)c1ccc(NCc2cc(O)ccc2O)cc1", "2.57 µM (inactive)"),
    ("O=c1c2ccccc2n2n1Cc1ccccc1C2", "> 100 µM (inactive)"),
    ("CCOC(=O)C1C2CCC1CC(=NNc1ccc([N+](=O)[O-])cc1[N+](=O)[O-])C2 (stereo unspecified)", "> 50 µM (inactive)"),
]

The compound identified as CN(C)/C=N/CC(O)c1ccccc1 (stereo unspecified) registered its GI50 at > 100 µM (inactive)

The compound identified as CS/C=C\C(=O)O[C@H]1C[C@@H]2[C@@H](O)c3occ(C)c3C[C@]2(C)[C@@H](C)C1 registered its GI50 at 16 µM (inactive)

====

- Test system: SNB-19
- methodNotes: NCI tumour cell line growth inhibition, 48 h
Calls of active or inactive are those of the source. Cut-off read from the data, not from the text of the source: active = GI50 up to about 1.1 µM and inactive = higher.
reportedMetric: GI50

Example results:
# compound, target, reportedMetric, result
measured = [
    ("O=C(Nc1ccccc1SC(/C=C/NNC1=NN=C(c2ccccc2)C(c2ccccc2)N1)c1ccccc1)c1ccc(Cl)cc1Cl (stereo unspecified)", "SNB-19", "GI50", "80 µM (inactive)"),
    ("CC1=NN(c2ccccc2)C(=O)C12[C@H](c1ccccc1)C2(C#N)C#N (stereo partly specified)", "SNB-19", "GI50", "15.8 µM (inactive)"),
    ("C1CSCCSCCCSCCSCCCSCCSCCCSCCSC1", "SNB-19", "GI50", "> 100 µM (inactive)"),
]

The compound identified as Nc1ccn(C2(CO)C=C(CO)C(O)C2O)c(=O)n1 (stereo unspecified) registered its GI50 at > 25.8 µM (inactive)

The compound identified as C=C1c2nc3ccccc3n2C=C(c2ccc(Cl)cc2)N1c1ccc(OC)cc1 registered its GI50 at 3.44 µM (inactive)

The compound identified as CC(C)/C(=N\[N+](C)(C)C)c1ccccc1 registered its GI50 at > 100 µM (inactive)

====

- System: KM12
- methodNotes: NCI tumour cell line growth inhibition, 48 h
Active and inactive are the calls of the source. Cut-off read from the data, not from the text of the source: active = GI50 up to about 1.1 µM and inactive = higher.
Listed compounds paired with reported GI50

Example results:
# compound, GI50
data = [
    ("Nc1nc(Cl)cc(NCC2(CO)CCC(OCc3ccccc3)C2)n1 (centres undefined)", "21 µM (inactive)"),
    ("CCCCCCOP(=O)(OCCCCCC)C(NC(=O)OCC)(C(F)(F)F)C(F)(F)F", "39.1 µM (inactive)"),
    ("Cc1ccc(S(=O)(=O)NC2(C=O)CCCC3CCCCC32)cc1 (centres undefined)", "> 100 µM (inactive)"),
    ("Clc1ccc(OCc2nnc3sc(SSc4nn5c(COc6ccc(Cl)cc6)nnc5s4)nn23)cc1", "> 100 µM (inactive)"),
    ("O=C(c1ccccc1)c1c(-c2ccccc2)[nH]n(-c2ccc([N+](=O)[O-])cc2)c(=O)c1=O", "94.8 µM (inactive)"),
]

The compound identified as COC(=O)CCc1cc(O)c2c(c1)C(C(=O)OC)C(c1ccc(O)c(O)c1)O2 (centres undefined) registered its GI50 at 3.88 µM (inactive)

The compound identified as CC(=O)NC(CCCNC(=O)N(C)N=O)C(=O)NCc1ccccc1 (centres undefined) registered its GI50 at > 100 µM (inactive)

The compound identified as C=C1C2CC[C@@](C)(O)C2[C@H]2OC(=O)C(=C)[C@@H]2C[C@H]1O (some centres undefined) registered its GI50 at 19.7 µM (inactive)

The compound identified as N#Cc1c(N)c(-c2ccc(Cl)cc2)c(F)c2ccccc12 registered its GI50 at > 100 µM (inactive)

The compound identified as C[C@]12CCC(=O)C=C1CC[C@@H]1C2CC[C@]2(C)NC(=O)C(C#N)CC12 (some centres undefined) registered its GI50 at > 10 µM (inactive)
